# experiment.summary: folding stability dG unfold from trypsin proteolysis; higher = more stable
# cutoff 2 kcal/mol applies to folding stability dG unfold; >= gives Yes, < gives No

Take a look at these entries with their results.
Query: Entry SAGGSAGGSAGMTLLVKNEDGYLVKIEITEVEVDENGELHLKVKVEVLPPLEEVEEVEEESAGGSAGGSAGG [r17_536_TrROS_Hall] : is its folding stability dG unfold no less than 2 kcal/mol?
Reply: No

Query: Item SAGGSAGGSPGKPYVEVEFTFIAFFPDGWLWVMTMKIEIPPDNNEIKPDIEMERIPLPPGQFLSAGGSAGGS [r12_811_TrROS] with folding stability dG unfold of 2 kcal/mol or above?
Reply: Yes

Query: Decide: is the reported value of folding stability dG unfold for SAGPPGQPIKPIDITVKPEENTITIKFGDKNLEIPIPPGVEADIWVYPDHIVITIEFPDGKIVTIVLPFSAG [r5_21_TrROS] equal to or greater than 2 kcal/mol?
Reply: Yes

Query: Tell me whether folding stability dG unfold is at least 2 kcal/mol here: SAGMVVTINFSIPETGETITITIPVPEDDPVVKALGAPSAEDIAAYLAPQLKEKGINVQNPTVTVTEPSSAG [r5_722_JUSTAS]
Reply: No

Query: Would you say SAGGMKVTTKPLPSDSEVVDIPGGVTMKIDPKTGVGTITLPDGKTLKMTITKDPNKNTTTITITPESSAGGS [r8_186_JUSTAS] shows folding stability dG unfold at minimum 2 kcal/mol?
Reply: No

Query: # bool: folding stability dG unfold of SAGGSAGGPVSVDPSTGTVTITVPPGTATPVVEAIAAALGLPVETATTPLPDGTTTVTVTIPAASAGGSAGG [r6_419_JUSTAS] >= 2 kcal/mol
Reply: No

Query: Could you please find out whether SAGFEARVLEVVDLGDRRVALFELRDPEEGRYLLAVAVYDPETGLARVELWDPTDGRLVATPVVPVLPLSAG [r5_440_TrMRF] has folding stability dG unfold that meets 2 kcal/mol or exceeds it?
Reply: No

Query: Has SAGGSAGGSAIKPGETIPIKIGNFPIKITVYGDWVEITFPNGRKIRFRVAVDDGKLEIDIYFSAGGSAGGSA [r18_172_TrROS] a recorded folding stability dG unfold greater than or equal to 2 kcal/mol?
Reply: Yes

***
Query: Please check the record SAGGSAGGSAGWGLIITIEVEGEYDPANGQWSLNIEIEIQPIRIPPPKEPPPDDNPNNDDSAGGSAGGSAGG [r17_454_TrROS] and state if its folding stability dG unfold is at or above 2 kcal/mol.
Reply: Yes

Query: Could you please find out whether SAGGWITPELIEEIAKTIAEENPENGKEVPIEVVIPFPNSVIKIEIEFDPSNGKIEIEDIKVIPPNDLSAGG [r13_37_TrROS] has folding stability dG unfold that meets 2 kcal/mol or exceeds it?
Reply: No

Query: Is reported folding stability dG unfold greater than or equal to 2 kcal/mol here: STLTLEELKERFPELSEEELEALAERLAALPAPVTVTVEVRPAPPPPVEERELSEEELLEARLRPGERVESA [r9_1024_TrROS_Hall]
Reply: No

Query: Hi team, for SAGGGMSTTTETTIRIYVKDPQGNPVFVAELTVTVTTSPSGEVTIHLPPEFLKALPPNYTIAKIEVTSAGGS [r16_295_JUSTAS] , is the recorded folding stability dG unfold at or above 2 kcal/mol?
Reply: Yes

Query: Please check the record SAGGSIWIPIDSPEDVEEAIDFIQDFLAERGMPPGHDIKKIKVERMENGHYWVEIEFPGRKIYIWVSAGGSA [r2_120_TrROS] and state if its folding stability dG unfold is at or above 2 kcal/mol.
Reply: Yes

Query: Determine whether measured folding stability dG unfold meets or exceeds 2 kcal/mol for SDLDPNSTLVFSAPFPVSDPDALLEHAETVARELGPDVRVERVVFDPNTPNVAVVEVSVPGGTVTLVYSRSA [r9_1079_TrMRF]
Reply: No

Query: Identify whether the reported folding stability dG unfold of the following sequence is 2 kcal/mol or greater: SAGGSAGGSAGVIPLPGGEEVEYFPEKGEATVRLPDGTVYKVEITKAPDGSLSVTVTPAGSAGGSAGGSAGG [r11_331_JUSTAS]
Reply: No
